target: UniProt Q12809; experiment: Inhibition of human ERG at 1 uM by Thallium flux assay
ATTRIBUTE MEASURED: inhibition at 1 µM (%)
Output spec: scalar in %, unitless text.

Kindly note: UniProt Q12809, `CNCCS(=O)(=O)CC[C@@H]1OCC[C@@]2(S(=O)(=O)c3ccc(Cl)cc3)c3c(F)ccc(F)c3OC[C@@H]12` , inhibition at 1 µM value reported: 1

====

experiment: Clearance in rat hepatocytes assessed per million cells by HPLC/atmospheric pressure chemical ionization/MS analysis; assay type: ADME, cell-based, Hepatocyte; conditions: read-out: CLH
ATTRIBUTE MEASURED: hepatocyte CLint (µL/min/1e6 cells)
Give the value, in units of µL/min/1e6 cells, as a plain number.

Use these answered entries as a reference point.
                         compound_structure  attribute_measured  result
0  O=S(=O)(CC[C@@H]1OCC[C@@]2(S(=O)(=O)c3ccc(Cl)cc3)c3c(F)ccc(F)c3OC[C@@H]12)[C@H]1CCNC1    hepatocyte CLint    18.9
1  CNCCS(=O)(=O)CC[C@@H]1OCC[C@@]2(S(=O)(=O)c3ccc(Cl)cc3)c3c(F)ccc(F)c3OC[C@@H]12    hepatocyte CLint    22.3
2  O=S(=O)(CC[C@@H]1OCC[C@@]2(S(=O)(=O)c3ccc(Cl)cc3)c3c(F)ccc(F)c3OC[C@@H]12)[C@@H]1CCNC1    hepatocyte CLint    13.9

Form: compound = `CCNCCS(=O)(=O)CC[C@@H]1OCC[C@@]2(S(=O)(=O)c3ccc(Cl)cc3)c3c(F)ccc(F)c3OC[C@@H]12` ; hepatocyte CLint = 29.1

====

molecular target: hERG (KCNH2) (Homo sapiens, UniProt Q12809); assay: Inhibition of human ERG at 10 uM by thallium flux assay
Sequence (Q12809 whole entry): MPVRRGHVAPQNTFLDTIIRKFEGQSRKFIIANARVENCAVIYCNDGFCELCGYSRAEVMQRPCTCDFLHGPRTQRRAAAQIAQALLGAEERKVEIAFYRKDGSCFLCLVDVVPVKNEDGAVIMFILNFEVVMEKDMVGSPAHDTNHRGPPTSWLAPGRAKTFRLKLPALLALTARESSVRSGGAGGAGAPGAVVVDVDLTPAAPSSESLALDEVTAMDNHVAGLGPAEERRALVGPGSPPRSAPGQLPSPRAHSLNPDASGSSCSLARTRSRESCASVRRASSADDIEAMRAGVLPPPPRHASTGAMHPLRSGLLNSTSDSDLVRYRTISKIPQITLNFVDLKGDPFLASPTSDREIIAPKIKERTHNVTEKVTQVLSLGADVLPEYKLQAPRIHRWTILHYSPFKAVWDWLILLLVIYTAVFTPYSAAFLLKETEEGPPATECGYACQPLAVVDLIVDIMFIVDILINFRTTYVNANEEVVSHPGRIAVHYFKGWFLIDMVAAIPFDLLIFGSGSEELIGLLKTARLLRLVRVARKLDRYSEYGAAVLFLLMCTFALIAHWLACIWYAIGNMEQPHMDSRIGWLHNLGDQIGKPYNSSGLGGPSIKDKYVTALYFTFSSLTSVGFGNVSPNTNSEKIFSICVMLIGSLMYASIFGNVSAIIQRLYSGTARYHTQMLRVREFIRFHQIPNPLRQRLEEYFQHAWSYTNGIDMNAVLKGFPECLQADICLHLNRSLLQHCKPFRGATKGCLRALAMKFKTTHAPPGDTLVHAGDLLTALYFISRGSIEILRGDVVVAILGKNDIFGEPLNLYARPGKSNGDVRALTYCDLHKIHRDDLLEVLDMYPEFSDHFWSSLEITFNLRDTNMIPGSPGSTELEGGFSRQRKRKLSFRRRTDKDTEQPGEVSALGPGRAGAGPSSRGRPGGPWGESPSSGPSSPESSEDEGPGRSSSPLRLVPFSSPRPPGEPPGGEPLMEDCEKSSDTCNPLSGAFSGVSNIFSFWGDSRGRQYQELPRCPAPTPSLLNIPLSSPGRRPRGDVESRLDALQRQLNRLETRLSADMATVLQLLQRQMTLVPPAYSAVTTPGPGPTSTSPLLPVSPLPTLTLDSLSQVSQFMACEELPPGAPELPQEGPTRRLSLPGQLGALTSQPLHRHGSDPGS
ATTRIBUTE MEASURED: inhibition at 10 µM

For this compound ( `CNCCS(=O)(=O)CC[C@@H]1OCC[C@@]2(S(=O)(=O)c3ccc(Cl)cc3)c3c(F)ccc(F)c3OC[C@@H]12` ), measured inhibition at 10 µM is 21%

====

experiment: Clearance in dog hepatocytes assessed per million cells by HPLC/atmospheric pressure chemical ionization/MS analysis; assay type: ADME, cell-based, Canis lupus familiaris, Hepatocyte; conditions: read-out: CLH
ATTRIBUTE MEASURED: hepatocyte CLint (µL/min/1e6 cells)
Entry rule: numbers only, all in µL/min/1e6 cells.

In [3]: df
Out[3]:
                         compound_structure  result
0  NCCS(=O)(=O)CC[C@@H]1OCC[C@@]2(S(=O)(=O)c3ccc(Cl)cc3)c3c(F)ccc(F)c3OC[C@@H]12     6.4
1  O=S(=O)(CC[C@@H]1OCC[C@@]2(S(=O)(=O)c3ccc(Cl)cc3)c3c(F)ccc(F)c3OC[C@@H]12)CCN1CCNCC1     7.7
2  CNC(C)(C)CCS(=O)(=O)CC[C@@H]1OCC[C@@]2(S(=O)(=O)c3ccc(Cl)cc3)c3c(F)ccc(F)c3OC[C@@H]12    23.5

Continue with the compound presented below.
GET /value?item= `CCNCCS(=O)(=O)CC[C@@H]1OCC[C@@]2(S(=O)(=O)c3ccc(Cl)cc3)c3c(F)ccc(F)c3OC[C@@H]12` &field=hepatocyte CLint returns 10.8
